Test system: RPMI-8226 leukemia
Test: NCI-60 one-dose screen, 48 h
Details: 10 µM unless noted
The panel holds about 83,000 compounds, 20% with a hit somewhere; the sample as a whole holds those more often. Calls of active or inactive are those of the source. Rule for the calls: active = growth percent below 10; inactive = the rest.
Select the matching outcome among 1 (yes) = active, 0 (no) = inactive

Per the assay record, what outcome was assigned to "COc1ccc(Cc2cc(-c3ccccc3C)n[nH]c2=O)cc1" ? 0 (no)

Per the assay record, what outcome was assigned to O=C1OCC2=C1C(c1cccc(F)c1)c1cc3c(cc1N2CCO)OCCO3 (stereo unspecified) ? 0 (no)

Per the assay record, what outcome was assigned to "C=CCN(/C=C1/C(=O)O[C@H](COC)[C@@]2(C)C1=C(O)C(=O)C1=C2[C@H](OC(C)=O)C[C@]2(C)C(=O)CC[C@@H]12)CC=C" ? 0 (no)

Per the assay record, what outcome was assigned to "Cn1ccnc1C(=O)/C=C/c1ccc(CC(=O)Nc2ccc(Br)cc2)cc1" ? 1 (yes)

Per the assay record, what outcome was assigned to COC(=O)C1CCc2sc3ncnc(Nc4cn[nH]c4C(=O)Nc4ccc(CN5CCN(C)CC5)cc4)c3c21 (stereo unspecified) ? 1 (yes)

Per the assay record, what outcome was assigned to "CC/C=C\C[C@H]1C/C=C2/C(=O)C=C[C@@H]2C/C=C\CCCC(=O)O1" ? 1 (yes)

Continuing:
Per the assay record, what outcome was assigned to "O=[N+]([O-])c1cc(Br)cc2c1[nH]c1ccc(Br)cc12" ? 0 (no)

Per the assay record, what outcome was assigned to "COc1ccc2c(CCc3ccc(Cl)cc3)c3[n+](cc2c1OC)CCc1cc2c(cc1-3)OCO2" ? 0 (no)

Per the assay record, what outcome was assigned to "O=S1(=O)OC(c2ccc(O)c(Cl)c2)(c2ccc(O)c(Cl)c2)c2ccccc21" ? 0 (no)

Per the assay record, what outcome was assigned to COC(=O)CC[C@@H](C)[C@H]1CC[C@H]2C3CC[C@@H]4C[C@@H]5CC[C@]4(C)[C@@]3(O5)[C@H](Br)[C@@H](Br)[C@]12C (stereo partly specified) ? 0 (no)

Per the assay record, what outcome was assigned to "ClCc1ccc(-c2ccc(Cn3cnc4nc(Cl)nc(Cl)c43)cc2)cc1" ? 1 (yes)

Per the assay record, what outcome was assigned to "COc1cc2c(Nc3ccc(Br)cc3F)ncnc2cc1OCC1CCN(C)CC1" ? 0 (no)
